- target: human ether-à-go-go-related gene (hERG) potassium channel (human, UniProt Q12809);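 further: peak tail current of the secondary pulse compared with the same well before compound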
- Sequence (Q12809 whole entry, looked up): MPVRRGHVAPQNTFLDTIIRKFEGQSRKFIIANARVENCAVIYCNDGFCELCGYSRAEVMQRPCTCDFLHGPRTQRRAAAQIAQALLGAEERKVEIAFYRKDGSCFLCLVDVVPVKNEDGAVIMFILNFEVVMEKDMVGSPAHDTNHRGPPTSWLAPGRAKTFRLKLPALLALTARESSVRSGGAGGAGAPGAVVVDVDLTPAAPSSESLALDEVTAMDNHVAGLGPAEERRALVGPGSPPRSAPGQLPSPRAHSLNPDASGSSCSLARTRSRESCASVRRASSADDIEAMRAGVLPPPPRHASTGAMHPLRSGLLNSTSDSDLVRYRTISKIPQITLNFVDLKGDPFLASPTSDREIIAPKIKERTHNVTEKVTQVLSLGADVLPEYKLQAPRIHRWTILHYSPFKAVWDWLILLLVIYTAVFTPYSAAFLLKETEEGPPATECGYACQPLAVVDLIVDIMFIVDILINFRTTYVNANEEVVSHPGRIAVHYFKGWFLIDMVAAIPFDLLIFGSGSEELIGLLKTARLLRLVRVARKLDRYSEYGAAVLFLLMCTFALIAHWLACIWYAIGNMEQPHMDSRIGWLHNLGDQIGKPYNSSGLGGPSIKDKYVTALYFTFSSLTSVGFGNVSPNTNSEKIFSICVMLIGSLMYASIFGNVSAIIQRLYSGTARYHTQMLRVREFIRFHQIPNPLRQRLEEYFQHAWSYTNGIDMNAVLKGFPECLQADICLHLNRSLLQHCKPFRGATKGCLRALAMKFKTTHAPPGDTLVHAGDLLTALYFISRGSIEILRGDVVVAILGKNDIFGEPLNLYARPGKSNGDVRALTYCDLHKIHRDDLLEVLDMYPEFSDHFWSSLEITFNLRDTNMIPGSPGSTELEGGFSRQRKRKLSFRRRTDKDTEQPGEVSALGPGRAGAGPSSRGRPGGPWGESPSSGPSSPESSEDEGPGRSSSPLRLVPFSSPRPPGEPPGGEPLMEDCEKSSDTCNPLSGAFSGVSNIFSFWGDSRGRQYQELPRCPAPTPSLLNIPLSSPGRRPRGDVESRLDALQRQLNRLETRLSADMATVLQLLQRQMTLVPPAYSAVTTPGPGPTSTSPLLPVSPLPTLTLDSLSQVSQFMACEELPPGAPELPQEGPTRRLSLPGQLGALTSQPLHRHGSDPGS
- experimentNotes: primary screen, population patch clamp on CHO cells stably expressing hERG; higher = less effect of the substance
- Protocol: Briefly, Chinese hamster ovary (CHO) cells stably expressing the hERG channel were dislodged from tissue culture flasks and dispensed into PPC plates. […] During the recording, background leak currents were estimated by a 100 ms step to -80 mV from an initial holding potential of -70 mV and subtracted from the subsequent current measurement. The campaign was conducted in two phases using slight differences in recording protocol. […]
The campaign covered roughly 310,000 compounds. About 14,000 (4.5%) showed an effect of 50% or more. Effects have a minus sign here. Only a selection was taken, and strong results are over-represented in it overall.
Consider the following compounds; for each one, report its hERG current change (%, negative = inhibition) at 10uM.
Answer in %, number only, no unit symbol.

Query: Using the record for Cc1nc(CC(=O)N2CCN(S(=O)(=O)c3ccccc3C#N)CC2)cs1 , report its hERG current change (%, negative = inhibition) at 10uM.
Reply: 10.3

Query: And for CC(=O)OC[C@]1(OC(C)=O)C[C@@]23CC[C@H]4[C@@](C)(CCC[C@@]4(C)C(=O)O)[C@@H]2CC[C@@H]1C3 ?
Reply: 4.84

Query: Try the compound Nc1nc(Cl)cc(Oc2ccc(Cl)cc2)n1
Reply: 9.29

Query: Also COc1ccc(NC(=O)N[C@@H](CCSC)C(=O)O)cc1OC , if possible.
Reply: -0.994

Query: Now consider Nc1nc2ncc(C(=O)c3cc(F)ccc3O)cc2s1 .
Reply: -0.22

Query: Next up: Brc1ccc(OCCCN2CCOCC2)cc1.O=C(O)C(=O)O
Reply: -28.1

Query: Subsequent entry: CC1CCN(CCCCOc2ccc(Br)cc2)CC1
Reply: -69.4

Query: O=C1C(C2=NC(c3ccccn3)C3C(=O)N(c4ccc(Cl)cc4Cl)C(=O)C23)=C(O)c2ccccc21 (stereo not drawn) , same question.
Reply: -4.11

Query: Next up: COc1ccc(-n2nc([N+](=O)[O-])c(=NC3CCN(Cc4ccccc4)CC3)n2O)cc1
Reply: -39.8

Query: Please do the same for Cc1ccc(-n2cccn2)c(CN2CCCC(CNC(=O)c3ccc(F)cc3)C2)c1 (stereo not drawn) as well.
Reply: -75.5

Query: Queued: Cc1ccc(OCCCCN2CCCCC2)cc1
Reply: -12.1

Query: Same read-out for Cc1cc(C)c(CN2CCCC(CNC(=O)c3ccc(F)cc3)C2)c(-n2cccn2)c1 (stereo not drawn) ?
Reply: -75.6

Query: Continue with COc1cccc(NC(=O)c2cccnc2)c1
Reply: 11.2

Query: Now the same for CC1CCCCN1C(=O)CSc1nc2ccccc2[nH]1 (stereo not drawn)
Reply: 25.8

Query: Here is the next compound: CC1CCCN(C(=O)CN2CCC(c3nc4ccc(Cl)cc4[nH]3)CC2)C1 (stereo not drawn)
Reply: -67.8

Query: Same lookup for CC(=O)NNc1nc(-c2ccccc2)c2cc(Br)ccc2n1 , please.
Reply: 5.01

Query: Similarly, CCCc1cc(=O)[nH]c(SCC(=O)Nc2cc(C)on2)n1 ?
Reply: -70.9

Query: Another: CC1CCCCN1C(=O)CN1CCC(c2nc3ccc(Cl)cc3[nH]2)CC1 (stereo not drawn)
Reply: -60.2

Query: What do you have for Cc1cccc(CCN=c2c([N+](=O)[O-])nn(-c3ccccc3)n2O)c1 ?
Reply: -15.5

Query: Try the compound Br.C/C(CC1CC(COCC(C)C)OC1=O)=N\Nc1nc(-c2ccccc2)cs1 (stereo not drawn)
Reply: -15.5

Query: Do the same for CCOC(=O)c1csc(NC(=O)c2ccc(S(=O)(=O)N(C)C)cc2)n1 please
Reply: -20.9

Query: Repeat with O=C(CN1CCCCC1)NNc1nc(-c2ccccc2)c2cc(Cl)ccc2n1
Reply: -58

Query: Okay, and Cc1ccc(S(=O)(=O)Nc2cccc3cccnc23)cc1 ?
Reply: -12.1

Query: Item: CCOC(=O)CC1C(=O)NCCN1C(=O)c1ccc(Cl)cc1 (stereo not drawn)
Reply: 12.9

Query: Now this one: CCOc1ccc(S(=O)(=O)NCCC(=O)N(C)Cc2cccs2)cc1
Reply: -20.9

Query: Then what about the compound Cc1cc(N/N=C/c2ccccc2)nc(N)n1 ?
Reply: -14.5

Query: Can you check COc1ccc(N(CC(=O)NCc2cccs2)S(=O)(=O)c2ccc(F)cc2)cc1 next?
Reply: -0.742

Query: Repeat with O=C(CN1CCCCC1)NNc1nc(-c2ccccc2)c2cc(Br)ccc2n1
Reply: -55.4

Query: Another: O=C(/C=C/c1ccccc1)OCC(=O)N1CCCC1
Reply: 0.185

Query: And the next one, COc1ccc(CCNC(=O)c2nc3ncccn3n2)cc1OC ?
Reply: 18.6

Query: Similarly, CCN(Cc1ccccc1)C(=O)COC(=O)CNC(=O)c1ccc(C)s1 ?
Reply: 1.42

Query: Also, CCc1[nH]c(=S)c(C#N)c2c1CCCC2 please.
Reply: 14.9

Query: Next entry: BrCC(Br)C1CCC(Br)C(Br)C1 (stereo not drawn)
Reply: 20.6

Query: Also Cc1cccc(-n2nc([N+](=O)[O-])c(=NC3CCN(Cc4ccccc4)CC3)n2O)c1 , if possible.
Reply: -66.8

Query: Field entry: O=C(CCl)NNc1nc(-c2ccccc2)c2cc(Cl)ccc2n1
Reply: 1.46

Query: Okay, and CCOc1ccc(C(NC(=O)c2ccco2)c2ccc(OC)c(OC)c2)cc1 (stereo not drawn) ?
Reply: -39.9

Query: Follow-up item: O=C1C2CC=CCC2C(=O)N1CNc1ccccc1 (stereo not drawn)
Reply: 14.7

Query: Do the same for COc1ccc(C2/C=C\CN(C(=O)Nc3ccc(C(F)(F)F)cc3)CC(=O)N2Cc2ccc(F)cc2)cc1 (stereo not drawn) please
Reply: 6.55

Query: Also check COC(=O)c1ccccc1C(=O)N1CCCC(CNC(=O)c2ccc(F)cc2)C1 (stereo not drawn)
Reply: 11.2

Query: Repeat for the following compound: COc1ccc(OC)c(-c2csc(NC(=O)Cc3ccccc3OC)n2)c1
Reply: -0.305

Query: Same read-out for COc1ccccc1-c1cc(C(=O)NCCc2ccccc2)no1 ?
Reply: 5.18

Query: Further, for Cc1ccc(CN=c2c([N+](=O)[O-])nn(-c3cccc(C)c3)n2O)cc1 ?
Reply: -32.7

----------
Would you mind telling me the reported hERG current change (%, negative = inhibition) at 10uM of each entry?
- target: human ether-à-go-go-related gene (hERG) potassium channel (human);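 further: peak tail current of the secondary pulse compared with the same well before compound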
- experimentNotes: primary screen, population patch clamp on CHO cells stably expressing hERG; higher = less effect of the substance
Screen size: about 310,000 compounds; about 14,000 (4.5%) showed an effect of 50% or more. Effects have a minus sign here. Shown is part of a subset that was picked to be rich in strong results.
Quick note: give the figure in %, leave out the unit.

Query: Fill in the recorded hERG current change (%, negative = inhibition) at 10uM for this compound, with human ether-à-go-go-related gene (hERG) potassium channel (human) as test system: COc1ccc(NS(=O)(=O)c2cn(C)cn2)cc1
Reply: 11.9

Query: Cool, now CN1C(=O)OC(C)(CCc2ccccc2)C1(C)O (stereo not drawn)
Reply: 11.5

Query: Same for CCCCn1c(SCc2cccnc2)nc2c1c(=O)n(C)c(=O)n2C
Reply: -28

Query: Likewise for CCc1nc(Nc2ccc(O)cc2)c2oc3ccccc3c2n1.Cl ?
Reply: -13.6

Query: // next record CC(C)(C)NC(=O)CSc1ncccc1-c1nc2ccccc2[nH]1
Reply: -4.73

Query: Would you kindly repeat that for CC(=O)c1cc2c(cc1NC(=O)c1cnc(C)cn1)OCO2 ?
Reply: 4.22

Query: What do you have for CN1CCN(Cc2nc3c(c(=O)n(C)c(=O)n3C)n2CCCc2ccccc2)CC1 ?
Reply: -13.4

Query: Record: COc1ccc(NC(=O)c2cncn2-c2ccccc2)cc1
Reply: 13.7

Query: Another: Cl.c1ccc2c(c1)oc1c(NCCCn3ccnc3)ncnc12
Reply: -58.7

Query: Also CCCCn1c(SCc2ccccn2)nc2c1c(=O)n(C)c(=O)n2C , if possible.
Reply: -8.02

Query: Now consider O=c1c2ccccc2nc(SCCN2CCOCC2)n1CCc1ccccc1 and answer again.
Reply: -15.4

Query: Same question for CC1CCN(CCNC(=S)Nc2ccc(Cl)cc2)CC1 please.
Reply: -65.7

Query: Same question, CCCCCCn1c(CN2CCN(CCO)CC2)nc2c1c(=O)n(C)c(=O)n2C this time
Reply: -38.3

Query: // same read-out, input: CC12CC(NC(=O)N1c1cccc(C(=O)N3CCN(c4ccccc4F)CC3)c1)c1ccccc1O2 (stereo not drawn)
Reply: -6.74

Query: What about this compound? O=C(NCCN1CCOCC1)c1cc2ccccc2oc1=O
Reply: -1.87

Query: Field entry: COc1ccc(NC(=O)Cn2c(=O)oc3cc(S(=O)(=O)N4CCCC4)ccc32)cc1
Reply: 5.26

Query: Same question for CCOC(=O)[C@@H]1[C@H]2COc3ccc(Br)cc3[C@H]2N2C(=O)N(c3ccc(C)cc3)C(=O)[C@]12C please.
Reply: -4.14

Query: What do you have for CCOC(=O)Cn1c(Br)nc2c1c(=O)[nH]c(=O)n2C ?
Reply: -58

Query: Further, for CCOc1cc(C2NN=C(c3ccc(C)cc3)S2)ccc1O (stereo not drawn) ?
Reply: 9.67

Query: Now try Cc1cc(C)cc(NC(=O)CSc2nnc(-c3ccncc3)o2)c1 .
Reply: -22.8

Query: What would you report for COCCn1c(SCCN2CCCCC2)nc2ccccc2c1=O ?
Reply: -78.4

Query: Try this compound next: O=c1c2ccccc2oc2ccc(NCCCn3ccnc3)cc12
Reply: 9.83

Query: What do you get for O=C(CNC(=O)c1ccccc1Br)N/N=C/c1cccs1 ?
Reply: 4.8

Query: C=CCNC(=O)CSc1nc2ccccc2c(=O)n1CCc1ccc(OC)c(OC)c1 , same question.
Reply: -15.4

Query: Can you check O=C(NCCCN1CCOCC1)C(=O)N/N=C/c1ccccc1 next?
Reply: -20.2

Query: Would you mind doing CCc1nc(Nc2ccccc2)c2oc3ccccc3c2n1.Cl as well?
Reply: -5.28

Query: How about this compound: Cc1cccc(N(C(=O)c2nsc(Cl)c2Cl)C(C(=O)NC2CCCC2)c2ccc(O)cc2)c1 (stereo not drawn)
Reply: -2.24

Query: Another compound to check: COC(=O)C(NC(=O)CCC(=O)N[C@@H](C(=O)OC)c1ccccc1)c1ccccc1 (stereo partly drawn)
Reply: 9.88

Query: Consider next the compound COc1cc2c(cc1OC)C(c1cccs1)N(C(=O)c1ccncc1)CC2 (stereo not drawn) in the same way.
Reply: -66.8

Query: Follow-up entry: c1ccc(CNc2ncnc3c2oc2ccccc23)nc1
Reply: -1.56

Query: Let us now turn to Cc1ccccc1C1=NCC(=S)Nc2ccc(Cl)cc21
Reply: 0.98

Query: For CCC(=O)OCCn1c(Br)nc2c1c(=O)[nH]c(=O)n2C then?
Reply: -0.796

Query: Queued: c1coc(CNc2ncnc3c2oc2ccccc23)c1
Reply: -22.1

Query: Input COc1cc2c(cc1OC)C(c1cccs1)N(C(=O)c1cccnc1)CC2 (stereo not drawn)
Reply: -54.9

Query: Request: CCNc1nc(CC)nc2c1oc1ccccc12.Cl
Reply: -11.5

Query: Next record, please: O=c1c2ccccc2oc2cc(NCCCn3ccnc3)ccc12
Reply: -60.9

Query: // same read-out, input: COc1ccc(C2C(=O)N(C3CCCCC3)CC(=O)N2C2CCCC2)cc1 (stereo not drawn)
Reply: -12.1

Query: Now consider CCOC(=O)C1=C(C)Nc2ccccc2N/C1=N\S(=O)(=O)c1ccc(Cl)cc1 .
Reply: -7.32

Query: Entry CC(C)(C)c1ccc(NC(=O)CNC2CCCc3ccccc32)cc1.Cl (stereo not drawn) please
Reply: 2.24

Query: Cool, now Cc1ccc(C)c(C(=O)CC2(O)C(=O)N(C)c3ccccc32)c1 (stereo not drawn)
Reply: 8.85

Query: COc1cc2c(cc1OC)C(c1cccs1)N(C(=O)C(C)C)CC2 (stereo not drawn) ?
Reply: -19.2

Query: Likewise for COc1ccc(C(=O)NC(=S)NCc2ccccc2)cc1 ?
Reply: -0.211
